# experiment: Organic-solvent extraction of microbial inhibitors from an agro-waste hydrolysate mimic
# Format: physicochemical
# protocol.conditions: homogenizer rotational speed 100 rpm; solvent bis-(2-ethylhexyl) sebacate
Label scheme for Inhibitor extraction, phase separation by separating funnel: lower than 70% is 0 (no), 70% and above is 1 (yes).

- smiles.input: "COc1cc(C=O)cc(OC)c1O"
  qualitative.label: "1 (yes)"
- smiles.input: "COc1cc(/C=C/C(=O)O)ccc1O"
  qualitative.label: "1 (yes)"
- smiles.input: "O=Cc1ccco1"
  qualitative.label: "0 (no)"
- smiles.input: "COc1cc(C(=O)O)ccc1O"
  qualitative.label: "1 (yes)"

Turning now to a further compound:
Tell me whether Inhibitor extraction, phase separation by separating funnel is at least 70% here: `COc1cc(C=O)ccc1O`
1 (yes)
